- target or system: SARS-CoV-2 Mac1 (Severe acute respiratory syndrome coronavirus 2)
- experiment notes: biochemical
- settings: read-out: %inhibition
Counter-ions that a name gives are not always drawn.
observed property: inhibition at 100 µM (%)
Give the value in % but do not write % after it.

# compound, target or system, inhibition at 100 µM / %
rows = [
    ("O=C(/C=C\\n1cnc(-c2cc(C(F)(F)F)cc(C(F)(F)F)c2)n1)NNc1cnccn1 [Selinexor (KPT-330)]", "SARS-CoV-2 Mac1 (Severe acute respiratory syndrome coronavirus 2)", 0),
    ("COc1cc2/c(=N/c3ccc(Br)cc3F)nc[nH]c2cc1OCC1CCN(C)CC1 [Vandetanib (ZD6474)]", "SARS-CoV-2 Mac1 (Severe acute respiratory syndrome coronavirus 2)", 35.2),
    ("CC1(C)O[C@@H]2C[C@H]3[C@@H]4CCC5=CC(=O)C=C[C@]5(C)[C@H]4[C@@H](O)C[C@]3(C)[C@]2(C(=O)CO)O1 [Desonide]", "SARS-CoV-2 Mac1 (Severe acute respiratory syndrome coronavirus 2)", 17.1),
    ("CC(N)[C@]12C[C@H]3C[C@H](C[C@H](C3)C1)C2 (stereo partly drawn) [Rimantadine Hydrochloride]", "SARS-CoV-2 Mac1 (Severe acute respiratory syndrome coronavirus 2)", 4.71),
    ("Cc1c(Cl)cccc1Nc1ccccc1C(=O)O", "SARS-CoV-2 Mac1 (Severe acute respiratory syndrome coronavirus 2)", 16.4),
]

Can you look up the measured inhibition at 100 µM of Oc1ccc(OCc2ccccc2)cc1 for me?
0

Can you look up the measured inhibition at 100 µM of O=S(=O)(c1cccc2cnccc12)N1CCCNCC1 [Fasudil (HA-1077) HCl] for me?
0

Can you look up the measured inhibition at 100 µM of CC(=C(CCOC(=O)C(C)C)SSC(CCOC(=O)C(C)C)=C(C)N(C=O)Cc1cnc(C)nc1N)N(C=O)Cc1cnc(C)nc1N (stereo in doubt) for me?
12.8

Can you look up the measured inhibition at 100 µM of NC(=O)c1cnccn1 [Pyrazinamide] for me?
24.2

Can you look up the measured inhibition at 100 µM of CCCCOc1ccc(CC(=O)NO)cc1 for me?
14.1

----------
Each entry below carries its reported %inhibition.
- target or system: SARS-CoV-2 Mac1 (Severe acute respiratory syndrome coronavirus 2)
- experiment notes: biochemical
- settings: 100 µM; inhibitor
Give the value in % but do not write % after it.

Can you look up the measured %inhibition of COc1ccc(C[C@@H]2c3cc(OC)c(OC)cc3CC[N@+]2(C)CCC(=O)OCCCCCOC(=O)CC[N@@+]2(C)CCc3cc(OC)c(OC)cc3[C@H]2Cc2ccc(OC)c(OC)c2)cc1OC [Cisatracurium Besylate] for me?
1.897

Can you look up the measured %inhibition of C[C@@H](O)[C@H]1C(=O)N2C(C(=O)O)=C(S[C@@H]3CN[C@H](C(=O)N(C)C)C3)[C@H](C)[C@H]12 [Meropenem] for me?
0

Can you look up the measured %inhibition of CC1=C(C(=O)O)N2C(=O)[C@@H](NC(=O)[C@H](N)C3=CCC=CC3)[C@H]2SC1 [Cefradine] for me?
0.656

Can you look up the measured %inhibition of CC(C)N(CCC(C(N)=O)(c1ccccc1)c1ccccn1)C(C)C (stereo not shown) [Disopyramide] for me?
8.31

Can you look up the measured %inhibition of CCC[C@H](NC(=O)[C@@H]1[C@H]2CCC[C@H]2CN1C(=O)[C@@H](NC(=O)[C@@H](NC(=O)c1cnccn1)C1CCCCC1)C(C)(C)C)C(=O)C(=O)NC1CC1 for me?
0

Can you look up the measured %inhibition of CCCCCCNC(=O)n1cc(F)c(=O)[nH]c1=O for me?
16.37

Can you look up the measured %inhibition of COc1ccccc1N1CCN(CC(O)COc2cccc3ccccc23)CC1 (stereo not shown) [Naftopidil] for me?
1.252
